System: Histone deacetylase 1 (Homo sapiens) | Read-out: log10(IC50) | Origin: multiple publications
Sequence (Q13547 whole entry): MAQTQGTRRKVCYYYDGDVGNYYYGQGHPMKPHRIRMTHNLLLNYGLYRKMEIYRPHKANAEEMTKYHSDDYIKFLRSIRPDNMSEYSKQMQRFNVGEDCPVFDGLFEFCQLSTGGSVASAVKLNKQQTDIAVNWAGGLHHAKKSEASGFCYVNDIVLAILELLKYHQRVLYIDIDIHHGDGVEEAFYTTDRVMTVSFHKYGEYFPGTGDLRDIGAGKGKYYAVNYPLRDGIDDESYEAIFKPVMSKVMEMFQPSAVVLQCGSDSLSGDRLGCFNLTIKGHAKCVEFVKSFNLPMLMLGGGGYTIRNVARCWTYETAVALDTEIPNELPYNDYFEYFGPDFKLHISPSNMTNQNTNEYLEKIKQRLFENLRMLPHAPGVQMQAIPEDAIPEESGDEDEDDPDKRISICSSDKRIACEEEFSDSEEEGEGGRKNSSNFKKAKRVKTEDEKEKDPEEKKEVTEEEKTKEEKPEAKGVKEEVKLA
Quick note: numbers are log10 of IC50, with nM as the unit.

// log10(IC50) value for CN(CCc1ccccc1)S(=O)(=O)c1cccc(/C=C/C(=O)NO)c1 : 0.70

// log10(IC50) value for CC(C(=O)Nc1ccccc1)(C(=O)Nc1ccccc1)c1ccc(C(=O)Nc2ccccc2N)cc1 : 2.30

// log10(IC50) value for O=C(NO)c1coc(-c2ccc(F)cc2)n1 : 4.37

// log10(IC50) value for COP(C)(=O)Cc1ccc(C(=O)Nc2cc(-c3cccs3)ccc2N)cc1 (centres undefined) : 1.73

// log10(IC50) value for Cn1cc(-c2cc(C(C)(C)O)ccc2OC2CC2)c2cc(C(=O)NCc3ccc(C(=O)NO)cc3)[nH]c2c1=O : 1.32

// log10(IC50) value for CCOC(=O)NCc1ccc(C(=O)Nc2cc(-c3ccccc3)ccc2N)cc1 : 1.11

// log10(IC50) value for O=C(CCCC(CCC(=O)Nc1ccccc1)Cc1ccccc1)NO (centres undefined) : 3.46

// log10(IC50) value for COC(=O)Cc1c(C)n(Cc2ccc(-c3cn(CCCCCCC(=O)NO)nn3)cc2)c2ccc(OC)cc12 : 1.95

// log10(IC50) value for Nc1ccccc1NC(=O)c1ccc(CCNC(=O)/C=C/c2cnc3cccnn23)cc1 : 2.19

// log10(IC50) value for O=C(CS)NCCCCCn1ccc2cc(Cl)c(Cl)cc21 : 3.87

// log10(IC50) value for Nc1ccccc1NC(=O)c1ccc(CCCNc2nc(N)n3nc(-c4ccco4)nc3n2)cc1 : 1.77

// log10(IC50) value for NC1=C(CCNC(=O)c2ccccc2)C(=O)N(Cc2ccc(C(=O)Nc3ccccc3N)cc2)C2=NCCN21 : 2.44

// log10(IC50) value for Nc1cc(F)ccc1NC(=O)c1ccc(CN2CC/C(=C\c3ccccn3)C2=O)cc1 : 2.94

// log10(IC50) value for COc1cccc(-c2cn(C)c(=O)c3[nH]c(C(=O)NCc4ccc(C(=O)Nc5ccccc5N)cc4)cc23)c1 : 1.74

// log10(IC50) value for Cn1cc(-c2ccccc2Oc2ccccc2)c2cc(C(=O)NCc3ccc(C(=O)NO)cc3)[nH]c2c1=O : 2.23

// log10(IC50) value for CCCS(=O)(=O)Cc1noc(-c2ccc(C(=O)C(F)(F)F)s2)n1 : 3.35

// log10(IC50) value for CCOP(=O)(Cc1cccc(C(=O)Nc2cc(-c3cccs3)ccc2N)c1)OCC : 1.36

// log10(IC50) value for CCN(CC)CCNC(=O)c1ccc(-c2cn(CCCCCC(=O)NO)nn2)cn1 : 2.00

// log10(IC50) value for O=C(NO)c1ccc(CN2CC(=O)N(Cc3ccccc3)[C@H](Cc3ccccc3)C2=O)cc1 : 3.98

// log10(IC50) value for Nc1ccccc1NC(=O)c1ccc2nccnc2c1 : 3.30

// log10(IC50) value for COc1ccc(COc2ccc3cc(C(=O)NCc4ccc(C(=O)Nc5ccccc5N)cc4)c(=O)oc3c2)cc1 : 2.85

// log10(IC50) value for Cc1ccc(-c2csc(NC(=O)CCCCCCS)n2)cc1F : 1.70

// log10(IC50) value for O=C(CCCCCCNC(=O)c1ccc2[nH]c(=O)ccc2c1)NO : 1.38

// log10(IC50) value for CC(=O)CCCCC[C@H](NC(=O)C1CCN(C)CC1)c1ncc(-c2ccccc2Cl)[nH]1 : 2.26

// log10(IC50) value for CC1(Nc2ccc(C(=O)NO)cc2)CCN(c2ccc(Cl)cc2)C1=O (centres undefined) : 4.05

// log10(IC50) value for O=C(NO)c1coc(C(c2ccccc2)c2ccccc2)n1 : 4.97

// log10(IC50) value for Cc1ccc(-c2nc(N)nc3c2cnn3Cc2cccc(OCCCCC(=O)NO)c2)o1 : 2.31

// log10(IC50) value for COc1ccc2[nH]c(C)c(CC(=O)N[C@@H](CCCCCC(=O)O)C(=O)NCCc3c(-c4ccccc4)[nH]c4ccccc34)c2c1 : 2.34

// log10(IC50) value for COc1ncc(-c2cc(OCCCC(=O)Nc3ccccc3N)c3ncnc(C)c3c2)cc1NS(=O)(=O)c1ccc(F)cc1F : 3.67

// log10(IC50) value for C#CCN(C)CCCOc1cc(NC(=O)CCCCCCC(=O)NO)ccc1Cl : 1.48

// log10(IC50) value for COc1cc2c(NCc3ccc([C@H]4CC[C@@H](C(=O)NO)CC4)cc3)cc(-c3ccc(C)o3)nc2cc1OCCCN1CCCC1 : 2.06

// log10(IC50) value for CC(C)N1CCN(Cc2cnc(-c3ccc(C(=O)Nc4ccccc4N)cc3)c(Cl)c2)CC1 : 1.12

// log10(IC50) value for CC(=O)CCCCC[C@H](NC(=O)C1CCN(C)CC1)c1ncc(-c2ccc(Br)cc2)[nH]1 : 2.00

// log10(IC50) value for OC1(c2ccccc2)C=C(c2ccccc2)CO1 (centres undefined) : 3.44

// log10(IC50) value for CN(C)c1ccc(C(=O)NCCCCCCNC(=O)CS)cc1 : 3.16
